# IC50 values compiled below
# targetOrSystem: UniProt Q16880
# Sequence (Q16880 21-541): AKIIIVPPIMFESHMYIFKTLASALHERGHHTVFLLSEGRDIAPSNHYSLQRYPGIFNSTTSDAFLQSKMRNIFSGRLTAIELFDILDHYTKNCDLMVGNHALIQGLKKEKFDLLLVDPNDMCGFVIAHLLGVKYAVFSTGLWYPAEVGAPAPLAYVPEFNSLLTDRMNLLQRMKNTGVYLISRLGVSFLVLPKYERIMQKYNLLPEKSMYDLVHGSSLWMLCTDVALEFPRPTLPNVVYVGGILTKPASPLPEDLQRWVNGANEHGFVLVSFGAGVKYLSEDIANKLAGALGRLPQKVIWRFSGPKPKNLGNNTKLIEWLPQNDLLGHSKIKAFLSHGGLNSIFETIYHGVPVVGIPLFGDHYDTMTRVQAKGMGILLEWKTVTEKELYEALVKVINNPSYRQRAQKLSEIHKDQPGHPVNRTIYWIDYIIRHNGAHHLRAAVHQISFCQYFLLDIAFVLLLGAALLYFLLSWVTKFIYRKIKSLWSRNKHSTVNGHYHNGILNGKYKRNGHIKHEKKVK
# protocolText: In vitro sulfatide (SFT) synthesis inhibition in OE19 cells, LC-MS/MS readout
# conditionParameters: 72 hr, sulfatide by LC-MS/MS, read-out: Potency range (IC50, In-vitro SFT)
# Protocol: For medium throughput screening, library compounds were dispensed into CellBIND 384 well plates to a final concentration of 10 μM. OE19 cells (Sigma) were grown in to 70-90% confluency in RPMI 1640+L-glutamine and […]; were trypsinized to achieve suspension and were aliquoted at 2,500 cells/well, total well volume 50 μl. […] SFT was analyzed using an Applied Biosystems API-4000 triple quad mass spectrometer interfaced to a Thermo Scientific Multiplex system (LX-4) equipped with four pumps. […]

[[record]]
compound = "CNC(=O)c1csc2c(C(F)(F)F)cc(CC3CCN(C(=O)OCCOC(F)(F)F)CC3)nc12"
endpointresult = "< 100 nM"

[[record]]
compound = "CNC(=O)c1csc2c(C(F)(F)F)cc(O[C@@H]3CN(C(=O)OC(C)(C)C)C[C@@H]3F)nc12 (racemic)"
endpointresult = "< 100 nM"

[[record]]
compound = "CNC(=O)c1csc2c(C(F)(F)F)cc(O[C@@H]3CCN(C(=O)OCCOC(F)(F)F)[C@H](C)C3)nc12 [Example 375]"
endpointresult = "< 100 nM"

[[record]]
compound = "CNC(=O)c1csc2c(C(F)(F)F)cc(N3CCC(NC(=O)O[C@H]4CCN(C)[C@H]4C)CC3)nc12"
endpointresult = "> 1000 nM"

[[record]]
compound = "CNC(=O)c1csc2c(C(F)(F)F)cc(OC3CC4COCC(C3)N4C(=O)OC(C)(C)C)nc12 (racemic) [Example 628]"
endpointresult = "100 to 1000 nM"

[[record]]
compound = "CNC(=O)c1csc2c(C(F)(F)F)cc(OC3CN(C(=O)OCCOC(F)(F)F)C3)nc12"
endpointresult = "< 100 nM"

[[record]]
compound = "CNC(=O)c1csc2c(C(F)(F)F)cc(O[C@H]3CCN(C(=O)OCC4CC4)C3)nc12"
endpointresult = "< 100 nM"

[[record]]
compound = "CNC(=O)c1csc2c(C(F)(F)F)cc(C3CC4(C3)CN(C(=O)OCCOC(F)(F)F)C4)nc12"
endpointresult = "< 100 nM"


IC50 for CCNC(=O)CN1CCN(c2cc(C(F)(F)F)c3scc(C(=O)NC)c3n2)CC1 is 100 to 1000 nM

COC(=O)c1csc2c(C(F)(F)F)cc(C3CCN(C(=O)OC(C)(C)C)CC3)nc12 has a reported IC50 of 100 to 1000 nM

Lookup result for CNC(=O)c1csc2c(C(F)(F)F)cc(N3CCC(OC(=O)N4C[C@@H](N(C)C)[C@@H]4C)CC3)nc12 ; measured IC50: < 100 nM

For record CNC(=O)c1csc2c(Cl)cc(N3CCC(OC(=O)NCC4CC4)CC3)nc12 the listed IC50 is < 100 nM

get_value(item= CNC(=O)c1csc2c(C(F)(F)F)cc(N3CC[C@H](OC(=O)NC(C)C)[C@@H](F)C3)nc12 (racemic) [Example 490] , readout=IC50) returns < 100 nM

Entry CC[C@H](C)NC(=O)OC1CCN(c2cc(C(F)(F)F)c3scc(C(=O)NC)c3n2)CC1 , IC50 reported as < 100 nM

So for CNC(=O)c1csc2c(C(F)F)cc(N3CCC(OC(=O)NC(C)C)CC3)nc12 , the logged IC50 turned out to be < 100 nM

* * *

# targetOrSystem: UGT8 (Mus musculus, UniProt Q64676)
# Construct: Groups of 5 male C57Bl/6 mice, 6-9 wks of age (Charles River Laboratories); tissue Charles River Laboratories; host or cells: mouse kidney (adult C57Bl/6) and mid-/hind brain (neonatal P14-P21 mice)
# Sequence (Q64676 21-541): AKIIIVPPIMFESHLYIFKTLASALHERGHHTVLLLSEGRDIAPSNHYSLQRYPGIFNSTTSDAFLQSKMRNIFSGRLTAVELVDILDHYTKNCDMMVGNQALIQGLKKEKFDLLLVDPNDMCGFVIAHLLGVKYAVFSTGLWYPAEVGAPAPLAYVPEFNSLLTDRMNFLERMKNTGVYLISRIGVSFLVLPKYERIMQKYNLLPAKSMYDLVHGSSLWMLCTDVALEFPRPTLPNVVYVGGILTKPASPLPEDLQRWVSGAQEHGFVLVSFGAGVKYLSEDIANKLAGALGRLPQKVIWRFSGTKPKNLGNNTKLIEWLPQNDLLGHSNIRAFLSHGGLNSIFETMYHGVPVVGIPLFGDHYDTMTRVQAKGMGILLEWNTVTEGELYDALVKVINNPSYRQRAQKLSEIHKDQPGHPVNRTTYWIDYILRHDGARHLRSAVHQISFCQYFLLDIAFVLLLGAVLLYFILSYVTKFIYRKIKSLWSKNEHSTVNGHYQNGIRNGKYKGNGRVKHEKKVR
# protocolText: Acute in vivo target engagement in mouse kidney: inhibition of de novo GalCer and SFT synthesis (13C-Gal incorporation)
# conditionParameters: single oral dose 10 mg/kg, 5 hr
measurementType: kidney Sulfatide % inh

Worked set:
[[record]]
compoundstring = "CNC(=O)c1csc2c(C(F)(F)F)cc(N3CCC(OC(=O)N[C@@H](C)COC(F)(F)F)CC3)nc12"
endpointresult = "A (A > 80%)"

[[record]]
compoundstring = "CNC(=O)c1csc2c(C(F)(F)F)cc(O[C@@H]3CCN(C(=O)OCCOC(F)(F)F)[C@H](C)C3)nc12"
endpointresult = "B (40% < B < 80%)"

[[record]]
compoundstring = "CNC(=O)c1csc2c(C(F)(F)F)cc(N3CCC(OC(=O)NC4CC4)CC3)nc12"
endpointresult = "B (40% < B < 80%)"

[[record]]
compoundstring = "CNC(=O)c1csc2c(C(F)(F)F)cc(N3CCC(OC(=O)N[C@@H](C)CF)CC3)nc12"
endpointresult = "A (A > 80%)"


Moving on to another molecule below.
Briefly, kidney Sulfatide % inh measured for CNC(=O)c1csc2c(C(F)(F)F)cc(N3CCC(OC(=O)NC(C)C)CC3)nc12 : B (40% < B < 80%)

* * *

# targetOrSystem: UGT8 (Mus musculus)
# Construct: Groups of 5 male C57Bl/6 mice, 6-9 wks of age (Charles River Laboratories); tissue Charles River Laboratories; host or cells: mouse kidney (adult C57Bl/6) and mid-/hind brain (neonatal P14-P21 mice)
# Sequence (Q64676 21-541): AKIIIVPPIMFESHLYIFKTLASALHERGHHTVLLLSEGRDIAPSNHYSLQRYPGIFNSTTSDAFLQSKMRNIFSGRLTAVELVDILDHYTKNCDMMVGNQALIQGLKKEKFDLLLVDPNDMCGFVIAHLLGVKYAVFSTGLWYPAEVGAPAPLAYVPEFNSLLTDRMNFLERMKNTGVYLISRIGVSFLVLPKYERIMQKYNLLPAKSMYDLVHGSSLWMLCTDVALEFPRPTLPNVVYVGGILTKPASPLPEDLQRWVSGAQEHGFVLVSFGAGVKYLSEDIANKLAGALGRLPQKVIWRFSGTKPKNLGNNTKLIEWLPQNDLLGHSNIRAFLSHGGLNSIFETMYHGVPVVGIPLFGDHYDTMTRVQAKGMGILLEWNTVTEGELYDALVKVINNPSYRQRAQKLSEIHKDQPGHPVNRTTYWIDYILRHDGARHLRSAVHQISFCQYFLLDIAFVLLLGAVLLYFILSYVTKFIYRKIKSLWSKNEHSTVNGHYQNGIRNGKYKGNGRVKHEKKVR
# protocolText: Acute in vivo target engagement in neonatal mouse brain: inhibition of de novo GalCer and SFT synthesis (13C-Gal incorporation)
# conditionParameters: neonatal mouse (P14-P21) brain, single oral dose 30 mg/kg, 5 hr
measurementType: brain Sulfatide % inh

[[record]]
compound = "CNC(=O)c1csc2c(C(F)(F)F)cc(N3CCC(OC(=O)N[C@@H](C)COC(F)(F)F)CC3)nc12 [Example 90]"
targetorsystem = "UGT8 (Mus musculus)"
endpointresult = "A, A, A (A > 80%)"

[[record]]
compound = "CNC(=O)c1csc2c(C(F)(F)F)cc(N3CCC(OC(=O)N[C@@H](C)C4CC4)CC3)nc12 [Example 109]"
targetorsystem = "UGT8 (Mus musculus)"
endpointresult = "A, A, A (A > 80%)"

[[record]]
compound = "CNC(=O)c1csc2c(C(F)(F)F)cc(N3CCC(OC(=O)NC4CC4)CC3)nc12 [Example 473]"
targetorsystem = "UGT8 (Mus musculus)"
endpointresult = "A, A, A (A > 80%)"


* * *

# targetOrSystem: UGT8 (Mus musculus)
# Construct: Groups of 5 male C57Bl/6 mice, 6-9 wks of age (Charles River Laboratories); tissue Charles River Laboratories; host or cells: mouse kidney (adult C57Bl/6) and mid-/hind brain (neonatal P14-P21 mice)
# protocolText: Acute in vivo target engagement in mouse kidney: inhibition of de novo GalCer and SFT synthesis (13C-Gal incorporation)
# conditionParameters: single oral dose 1 mg/kg, 5 hr
measurementType: kidney GalCer % inh

[[record]]
compoundstring = "CNC(=O)c1csc2c(C(F)(F)F)cc(N3CCC(OC(=O)NC(C)C)CC3)nc12"
endpointresult = "C (C < 40%)"

[[record]]
compoundstring = "CNC(=O)c1csc2c(C(F)(F)F)cc(O[C@@H]3CCN(C(=O)OCCOC(F)(F)F)[C@H](C)C3)nc12"
endpointresult = "C (C < 40%)"

[[record]]
compoundstring = "CNC(=O)c1csc2c(C(F)(F)F)cc(N3CCC(OC(=O)N[C@@H](C)CF)CC3)nc12"
endpointresult = "C (C < 40%)"

[[record]]
compoundstring = "CNC(=O)c1csc2c(C(F)(F)F)cc(N3CCC(OC(=O)N[C@@H](C)COC(F)(F)F)CC3)nc12"
endpointresult = "C (C < 40%)"

